Task for the reader: assign each of the following compounds its reported pIC50.
System: HepG2
assay_info: Cytotoxicity against human HepG2 cells after 72 hrs by MTT assay
Assay type: functional, cell-based
reported_conditions: HepG2, 72 h
Give bare numbers, as −log10 of the molar value.

For each listed entry, give its pIC50.
1. CC1(C)C(=O)Nc2cc3nccc(Oc4ccc(NC(=O)Nc5cccc(F)c5)cc4F)c3cc21
2. CC1(C)C(=O)Nc2cc3nccc(Oc4ccc(NC(=O)Nc5cccc(F)c5)cc4Cl)c3cc21
3. Cc1cccc(C)c1NC(=O)Nc1ccc(Oc2ccnc3cc4c(cc23)C(C)(C)C(=O)N4)cc1
4. Cc1cccc(C)c1NC(=O)Nc1ccc(Oc2ccnc3cc4c(cc23)C(C)(C)C(=O)N4)c(Cl)c1
5. CC1(C)C(=O)Nc2cc3nccc(Oc4ccc(NC(=O)Nc5ccc(F)c(C(F)(F)F)c5)cc4)c3cc21

1: 4.81; 2: 5.13; 3: 4.69; 4: 4.95; 5: 5.02
